Consider the following compounds and their measured XylE (50.0) readings.
- Tested on: hrtAB-driven expression of the xylE reporter gene
- METHOD DESCRIPTION: XylE reporter assay (hrtAB promoter-xylE), Newman
- Assay type: cell-based, Staphylococcus aureus
- CONDITION DESCRIPTION: level of XylE induction at 50.0 uM of the compound

[
  {
    "COMPOUND": "O=C(NC(=S)Nc1ccc(Oc2ccccc2)cc1)c1cccs1",
    "TARGET OR SYSTEM": "hrtAB-driven expression of the xylE reporter gene",
    "XylE (50.0)": 0.01
  },
  {
    "COMPOUND": "Cc1c(-c2ccccc2)nc2ccccc2c1C(=O)Nc1ccccc1C(F)(F)F",
    "TARGET OR SYSTEM": "hrtAB-driven expression of the xylE reporter gene",
    "XylE (50.0)": 0.02
  },
  {
    "COMPOUND": "c1cc(-c2ccc3nsnc3c2)c2cc3nsnc3cc2c1",
    "TARGET OR SYSTEM": "hrtAB-driven expression of the xylE reporter gene",
    "XylE (50.0)": 0.9
  },
  {
    "COMPOUND": "O=C(O)C1CSC(c2cccnc2)=N1 (stereo not shown)",
    "TARGET OR SYSTEM": "hrtAB-driven expression of the xylE reporter gene",
    "XylE (50.0)": 3
  },
  {
    "COMPOUND": "COc1ccccc1-c1csc(NC(=O)c2ccc(-c3ccccc3)cc2)n1",
    "TARGET OR SYSTEM": "hrtAB-driven expression of the xylE reporter gene",
    "XylE (50.0)": 1
  },
  {
    "COMPOUND": "Cc1ccc(O)c(NC(=O)c2nn3c(c2Br)NC(c2ccco2)CC3C(F)(F)F)c1 (stereo not shown) [drawing 60]",
    "TARGET OR SYSTEM": "hrtAB-driven expression of the xylE reporter gene",
    "XylE (50.0)": 1
  },
  {
    "COMPOUND": "CCc1ccccc1NC(=O)C1CCCCC1C(=O)O (stereo not shown)",
    "TARGET OR SYSTEM": "hrtAB-driven expression of the xylE reporter gene",
    "XylE (50.0)": 1
  },
  {
    "COMPOUND": "Cc1cccc(C(=O)Nc2ccc(-c3nc4ccccc4o3)cc2)c1 [drawing 27]",
    "TARGET OR SYSTEM": "hrtAB-driven expression of the xylE reporter gene",
    "XylE (50.0)": 0.2
  },
  {
    "COMPOUND": "O=[N+]([O-])c1ccc(O)c(/C=N/c2ccccc2-c2nc3ccccc3s2)c1",
    "TARGET OR SYSTEM": "hrtAB-driven expression of the xylE reporter gene",
    "XylE (50.0)": 1
  },
  {
    "COMPOUND": "CCCN1C(=O)/C(=C2/C(=O)N(CC(=O)Nc3ccc(Cl)cc3)c3ccccc32)SC1=S [drawing 67]",
    "TARGET OR SYSTEM": "hrtAB-driven expression of the xylE reporter gene",
    "XylE (50.0)": 1
  },
  {
    "COMPOUND": "Nc1ccccc1C(=O)Nc1nc2ccc(Cl)cc2s1",
    "TARGET OR SYSTEM": "hrtAB-driven expression of the xylE reporter gene",
    "XylE (50.0)": 0.04
  },
  {
    "COMPOUND": "O=C(N/N=C/c1ccc(-c2ccc(Br)cc2)o1)C1COc2ccccc2O1 (stereo not shown) [drawing 48]",
    "TARGET OR SYSTEM": "hrtAB-driven expression of the xylE reporter gene",
    "XylE (50.0)": 0.2
  },
  {
    "COMPOUND": "Cc1cccc(NC(=O)c2cc3ccccc3cc2O)c1",
    "TARGET OR SYSTEM": "hrtAB-driven expression of the xylE reporter gene",
    "XylE (50.0)": 0.02
  },
  {
    "COMPOUND": "COc1ccc(C(=O)Nc2sc(-c3ccccc3)cc2C(N)=O)cc1",
    "TARGET OR SYSTEM": "hrtAB-driven expression of the xylE reporter gene",
    "XylE (50.0)": 6
  },
  {
    "COMPOUND": "COc1cccc(-c2cc(C(=O)Nc3ccccc3C(F)(F)F)c3ccccc3n2)c1",
    "TARGET OR SYSTEM": "hrtAB-driven expression of the xylE reporter gene",
    "XylE (50.0)": 0.09
  },
  {
    "COMPOUND": "Cc1ccc(-c2nnc(SCC(=O)NC3CCCC3)nc2-c2ccc(C)cc2)cc1",
    "TARGET OR SYSTEM": "hrtAB-driven expression of the xylE reporter gene",
    "XylE (50.0)": 0.04
  },
  {
    "COMPOUND": "COc1cc(/C=C/c2ccc3cccc(O)c3n2)c(Cl)cc1O",
    "TARGET OR SYSTEM": "hrtAB-driven expression of the xylE reporter gene",
    "XylE (50.0)": 0
  },
  {
    "COMPOUND": "CC(NC(=O)C1(c2ccccc2)CCCC1)C1COc2ccccc2O1 (stereo not shown) [drawing 26]",
    "TARGET OR SYSTEM": "hrtAB-driven expression of the xylE reporter gene",
    "XylE (50.0)": 200
  },
  {
    "COMPOUND": "O=S(=O)(Nc1cc(Cl)ccc1Cl)c1ccc(Cl)cc1",
    "TARGET OR SYSTEM": "hrtAB-driven expression of the xylE reporter gene",
    "XylE (50.0)": 0.1
  },
  {
    "COMPOUND": "COc1ccc(/C=C/c2nc3ccccc3c(=O)n2-c2cccc(C(=O)O)c2)cc1",
    "TARGET OR SYSTEM": "hrtAB-driven expression of the xylE reporter gene",
    "XylE (50.0)": 0.05
  },
  {
    "COMPOUND": "COc1ccc(Br)cc1C(=O)NC(=S)Nc1cc(C)c(C)cc1O [drawing 63]",
    "TARGET OR SYSTEM": "hrtAB-driven expression of the xylE reporter gene",
    "XylE (50.0)": 2
  },
  {
    "COMPOUND": "Cc1ccc(Nc2nc(-c3ccccc3O)nc3ccccc23)cc1",
    "TARGET OR SYSTEM": "hrtAB-driven expression of the xylE reporter gene",
    "XylE (50.0)": 0.08
  }
]
